Source of measurements: patent US8101782B2

Target: AChE (Homo sapiens, UniProt P22303)
Sequence (P22303 32-614): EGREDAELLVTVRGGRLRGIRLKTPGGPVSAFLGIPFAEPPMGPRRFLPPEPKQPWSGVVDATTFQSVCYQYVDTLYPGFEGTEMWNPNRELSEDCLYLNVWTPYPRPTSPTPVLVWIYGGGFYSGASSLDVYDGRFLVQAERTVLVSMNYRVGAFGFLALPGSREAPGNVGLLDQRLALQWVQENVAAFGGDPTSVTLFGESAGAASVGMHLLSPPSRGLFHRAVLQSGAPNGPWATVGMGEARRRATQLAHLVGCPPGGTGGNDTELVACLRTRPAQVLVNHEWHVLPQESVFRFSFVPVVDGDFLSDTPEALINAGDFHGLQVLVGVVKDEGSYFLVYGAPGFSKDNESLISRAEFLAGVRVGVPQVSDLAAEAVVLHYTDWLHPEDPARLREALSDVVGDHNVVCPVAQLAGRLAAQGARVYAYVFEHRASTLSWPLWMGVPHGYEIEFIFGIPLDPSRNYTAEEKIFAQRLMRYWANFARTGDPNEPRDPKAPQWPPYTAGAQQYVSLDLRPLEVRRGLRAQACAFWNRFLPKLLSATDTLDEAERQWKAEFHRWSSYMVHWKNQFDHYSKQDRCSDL
Experiment: In vitro screening assay, AChE inhibition (spectrophotometric quantitation of thiocholine)
Type: biochemical
Details: 10 μM compound; 700 μM acetylthiocholine, pH 7.4, 25° C.
I would appreciate it if you labelled entries MET when AChEI (%) 10 μM is 80% or higher, otherwise NOT MET.

Given CC(CC1CCCCC1)N(C)C(=O)Oc1cccc([C@H](C)N(C)C)c1 (stereo partly drawn) , state whether its AChEI (%) 10 μM is at least 80%. MET

Reported AChEI (%) 10 μM at or above 80%? CC(NC(=O)Oc1cccc([C@H](C)N(C)C)c1)C12CC3CC(CC(C3)C1)C2 (stereo partly drawn) NOT MET

Assess whether reported AChEI (%) 10 μM for `C[C@@H](c1cccc(OC(=O)N(C)CCc2ccccn2)c1)N(C)C` sits at 80% or higher. NOT MET

Hi, just wondering whether `C[C@@H](c1cccc(OC(=O)N2CCC(=C3c4ccc(Cl)cc4CCc4cccnc43)CC2)c1)N(C)C` shows AChEI (%) 10 μM of 80% or higher. NOT MET

Does the reported AChEI (%) 10 μM for `C[C@@H](c1cccc(OC(=O)N[C@@H]2C[C@H]2c2ccccc2)c1)N(C)C` fall at or above the 80% mark? MET
